I'd be grateful if you could share measured IC50 for these entries.
assayed-system: human Nav1.7 (hNav1.7) (Homo sapiens)
Construct: expressed in transfected cells
assay-notes: hNav1.7 whole-cell patch-clamp electrophysiology (automated PatchXpress 7000A or manual) in stably expressing 293 cells
Assay type: cell-based
experimental-setup: average IC50, human Nav1.7
Just the number please, in µM, no unit attached.

Problem: // fetch human Nav1.7 (hNav1.7) (Homo sapiens) IC50 for CNC(=O)c1cccc(Nc2ncnc(N3CC(Oc4cccc(Cl)c4Cl)C3)n2)c1 [Example 104]
Solution: 1.57

Problem: Could you do the same for CNC(=O)c1cccc(Nc2ncnc(N3CCC(n4cc(-c5ccccc5Cl)cn4)CC3)n2)c1 [Example 190] , please?
Solution: 5.58

Problem: Also need CNC(=O)c1cccc(Nc2ncnc(N3CCC(c4ccc(C#N)c(C(F)(F)F)c4)CC3)n2)c1 [Example 215] , thanks.
Solution: 8.59

Problem: // repeat for CNC(=O)c1cccc(Nc2ncnc(N3CCN(c4ccccc4F)CC3)n2)c1 [Example 95] and report
Solution: 1.35

Problem: And CNC(=O)c1cccc(Nc2ncnc(N3CC(Oc4cc(F)ccc4F)C3)n2)c1 [Example 177] ?
Solution: 4.72

Problem: Try this molecule too: NC(=O)c1cccc(Nc2ncnc(N3CCc4cc(Br)ccc4C3)n2)c1 [Example 221]
Solution: 8.9

Problem: Follow-up entry: CNC(=O)c1cccc(Nc2ncnc(N3CC(Oc4cccc(C)c4)C3)n2)c1 [Example 49]
Solution: 0.65

Problem: Note, next up: CNC(=O)c1ccc(F)c(Nc2ncnc(N3CC(Oc4ccc(F)cc4)C3)n2)c1 [Example 165]
Solution: 3.82

Problem: Next molecule: CNC(=O)c1cccc(Nc2ncnc(N3CCC(COc4ccc(F)c(F)c4)CC3)n2)c1 [Example 93]
Solution: 1.3

Problem: And COCCNC(=O)c1cccc(Nc2ncnc(N3CC(COc4ccc(Cl)cc4)C3)n2)c1 [Example 47] ?
Solution: 0.64

Problem: What would you report for CNC(=O)c1cccc(Nc2ncnc(N3CC(Oc4cccc(C(F)(F)F)c4F)C3)n2)c1 [Example 256] ?
Solution: 16.7

Problem: Entry to check: CNC(=O)c1cccc(Nc2ncnc(N3CC(COc4cccc(F)c4)C3)n2)c1 [Example 242]
Solution: 11.2

Problem: CNC(=O)c1cccc(Nc2ncnc(N3CC(Oc4ccccc4C(F)(F)F)C3)n2)c1 [Example 141] , same question.
Solution: 2.79

Problem: Continue with CNC(=O)c1cc(Nc2ncnc(N3CC(Oc4ccc(Cl)cc4)C3)n2)ccc1Cl [Example 162]
Solution: 3.69

Problem: # repeat for CNC(=O)c1cccc(Nc2ncnc(N3CC(Oc4ccc(SC(F)(F)F)cc4)C3)n2)c1 [Example 83]
Solution: 1.06

Problem: And then CNC(=O)c1cccc(Nc2ncnc(N3CCN(c4ccc(C)c(C)c4)CC3)n2)c1 [Example 53] , what is it?
Solution: 0.69

Problem: Also CNC(=O)c1cccc(Nc2ncnc(N3CC(Oc4ccccc4-c4ccccc4)C3)n2)c1 [Example 217] ?
Solution: 8.66

====

assayed-system: human Nav1.7 (hNav1.7) (Homo sapiens, UniProt Q15858)
Construct: expressed in transfected cells
Sequence (Q15858 whole entry): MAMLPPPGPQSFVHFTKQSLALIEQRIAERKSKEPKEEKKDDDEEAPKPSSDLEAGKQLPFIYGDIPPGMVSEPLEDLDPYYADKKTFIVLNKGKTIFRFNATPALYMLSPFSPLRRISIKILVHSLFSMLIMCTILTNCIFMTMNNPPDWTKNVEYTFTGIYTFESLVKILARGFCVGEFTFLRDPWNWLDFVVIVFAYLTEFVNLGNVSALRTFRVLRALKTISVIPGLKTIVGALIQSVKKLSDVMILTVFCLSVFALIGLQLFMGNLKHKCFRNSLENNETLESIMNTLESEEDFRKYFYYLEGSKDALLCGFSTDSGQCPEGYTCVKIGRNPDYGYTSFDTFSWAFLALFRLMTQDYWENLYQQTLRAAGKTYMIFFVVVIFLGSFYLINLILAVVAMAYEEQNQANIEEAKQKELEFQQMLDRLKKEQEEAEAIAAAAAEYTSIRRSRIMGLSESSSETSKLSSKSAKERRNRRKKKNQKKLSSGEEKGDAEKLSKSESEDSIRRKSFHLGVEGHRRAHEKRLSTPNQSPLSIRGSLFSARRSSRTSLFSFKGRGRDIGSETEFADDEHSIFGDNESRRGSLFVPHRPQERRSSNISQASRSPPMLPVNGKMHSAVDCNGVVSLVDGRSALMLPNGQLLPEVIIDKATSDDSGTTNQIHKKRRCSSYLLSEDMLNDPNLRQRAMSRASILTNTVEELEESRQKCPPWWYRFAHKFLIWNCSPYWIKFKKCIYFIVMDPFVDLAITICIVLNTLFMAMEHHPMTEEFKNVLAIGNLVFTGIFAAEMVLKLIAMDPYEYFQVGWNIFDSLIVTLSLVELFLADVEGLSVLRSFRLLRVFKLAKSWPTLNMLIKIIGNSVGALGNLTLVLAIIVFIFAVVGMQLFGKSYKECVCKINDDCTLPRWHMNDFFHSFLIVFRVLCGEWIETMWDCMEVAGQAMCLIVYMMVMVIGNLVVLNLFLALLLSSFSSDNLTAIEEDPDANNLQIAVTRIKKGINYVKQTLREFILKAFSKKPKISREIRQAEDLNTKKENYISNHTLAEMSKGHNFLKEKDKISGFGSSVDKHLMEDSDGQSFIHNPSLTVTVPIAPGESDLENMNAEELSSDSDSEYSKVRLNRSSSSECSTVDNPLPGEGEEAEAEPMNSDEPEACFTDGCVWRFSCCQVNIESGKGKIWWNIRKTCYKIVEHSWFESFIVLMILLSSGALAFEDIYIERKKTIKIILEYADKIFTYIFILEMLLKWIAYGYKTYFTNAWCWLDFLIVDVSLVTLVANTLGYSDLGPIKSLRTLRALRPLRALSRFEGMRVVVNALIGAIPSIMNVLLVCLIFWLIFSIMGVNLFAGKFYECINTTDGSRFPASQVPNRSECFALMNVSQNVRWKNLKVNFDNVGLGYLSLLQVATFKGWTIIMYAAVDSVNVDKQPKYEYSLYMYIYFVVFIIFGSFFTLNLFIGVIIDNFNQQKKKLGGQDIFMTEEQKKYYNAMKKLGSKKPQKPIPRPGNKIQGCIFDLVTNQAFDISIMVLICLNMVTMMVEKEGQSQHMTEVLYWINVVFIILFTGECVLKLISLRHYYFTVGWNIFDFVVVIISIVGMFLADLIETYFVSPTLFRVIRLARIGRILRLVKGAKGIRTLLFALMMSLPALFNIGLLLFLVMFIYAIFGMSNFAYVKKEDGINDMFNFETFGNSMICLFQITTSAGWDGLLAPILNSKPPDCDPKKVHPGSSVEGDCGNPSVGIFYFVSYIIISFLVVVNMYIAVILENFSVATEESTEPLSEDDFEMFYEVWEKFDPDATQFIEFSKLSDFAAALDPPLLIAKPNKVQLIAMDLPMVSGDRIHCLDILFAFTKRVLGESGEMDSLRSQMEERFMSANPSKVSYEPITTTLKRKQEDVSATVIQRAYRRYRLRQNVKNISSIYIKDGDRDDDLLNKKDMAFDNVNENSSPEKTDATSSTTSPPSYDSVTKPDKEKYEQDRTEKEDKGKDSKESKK
assay-notes: hNav1.7 whole-cell patch-clamp electrophysiology (automated PatchXpress 7000A or manual) in stably expressing 293 cells
Assay type: cell-based
experimental-setup: average IC50, human Nav1.7
quantity-measured: IC50 (µM)
Reply with just the number (in µM).

Problem: Entry CNC(=O)c1cccc(Nc2ncnc(N3CCC(OCc4ccc(C(F)(F)F)cc4)CC3)n2)c1 has what IC50?
Solution: 3.03

Problem: Lookup CNC(=O)c1cccc(Nc2ncnc(N3CC(Oc4cccc(C(C)(C)C)c4)C3)n2)c1
Solution: 2.58

Problem: Same again, this time with CNC(=O)c1cccc(Nc2ncnc(N3CC(C)(Oc4ccc(C)cc4)C3)n2)c1
Solution: 5.1

Problem: // next record CNC(=O)c1cccc(Nc2ncnc(N3CCC(Oc4ccc(Cl)c(OC(F)(F)F)c4)CC3)n2)c1
Solution: 4.05

Problem: Can you handle CNC(=O)c1cccc(Nc2ncnc(N3CCC(c4ccc(C)c(C)c4)CC3)n2)c1 next?
Solution: 2

Problem: Try the molecule CNC(=O)c1cccc(Nc2ncnc(N3CCC(C(=O)c4ccccc4)CC3)n2)c1
Solution: 1.24

Problem: Repeat with CNC(=O)c1cccc(Nc2cc(N3CC(Oc4ccc(F)cc4)C3)ncn2)c1
Solution: 8.68

Problem: Record: CNC(=O)c1cccc(Nc2ncnc(N3CC(COc4ccc(OC)cc4)C3)n2)c1
Solution: 9.19

====

assayed-system: human Nav1.7 (hNav1.7) (Homo sapiens)
Construct: expressed in transfected cells
assay-notes: hNav1.7 whole-cell patch-clamp electrophysiology (automated PatchXpress 7000A or manual) in stably expressing 293 cells
Type: cell-based
experimental-setup: average IC50
Experimental: Compounds were tested on human Nav1.7 (hNav1.7) expressed stably in 293 cells, which have no endogenous sodium channels. Two forms of whole-cell patch-clamp assays were used. In both, peak current through Nav1.7 was evoked by a depolarizing voltage pulse, and currents were monitored as a function of time in response to exposure to several different concentrations of drug. Automated electrophysiology uses the PatchXpress 7000A system. […] IC50 were determined by fitting to the Hill equation.
quantity-measured: IC50 (µM)
Your answer is read as µM, so omit the unit and give the number.

Problem: // fetch human Nav1.7 (hNav1.7) (Homo sapiens) IC50 for CNC(=O)c1cccc(Nc2ncnc(N3CCc4ccc(Cl)cc4C3)n2)c1
Solution: 26.4

Problem: Queued: CNC(=O)c1cccc(Nc2ncnc(N3CC(C)(Oc4ccccc4)C3)n2)c1
Solution: 18.1

Problem: Quick one: CNC(=O)c1cccc(Nc2ncnc(N(C)Cc3nc(-c4ccccc4)no3)n2)c1
Solution: 27.7

Problem: Follow-up entry: CNC(=O)c1cc(Nc2ncnc(N3CC(Oc4ccc(F)cc4)C3)n2)ccc1C
Solution: 19.7

Problem: Can you check CNC(=O)c1cccc(Nc2ncnc(N3CC(Oc4ccc(C5CCCC5)cc4)C3)n2)c1 next?
Solution: 18.9

Problem: What do we get for CNC(=O)c1cccc(Nc2ncnc(N3CCc4cc(OCC(F)(F)F)ccc4C3)n2)c1C ?
Solution: 22.6

Problem: Also CNC(=O)c1cccc(Nc2ncnc(N3CC(OCc4ccc(F)cc4)C3)n2)c1 , if possible.
Solution: 21.7

Problem: Try this compound too: CNC(=O)c1cccc(Nc2ncnc(N3CC(Oc4ccc(F)cc4)C3)n2)c1F
Solution: 21.1

Problem: Could you do the same for CNC(=O)c1cccc(Nc2ncnc(N3CCCC(Oc4cccc(Cl)c4)C3)n2)c1 (centres unmarked) , please?
Solution: 26

====

assayed-system: human Nav1.7 (hNav1.7) (Homo sapiens)
Construct: expressed in transfected cells
assay-notes: hNav1.7 whole-cell patch-clamp electrophysiology (automated PatchXpress 7000A or manual) in stably expressing 293 cells
Type: cell-based
experimental-setup: human Nav1.7 stably expressed in 293 cells; whole-cell patch clamp; average IC50 from Hill fit
Experimental: Compounds were tested on human Nav1.7 (hNav1.7) expressed stably in 293 cells, which have no endogenous sodium channels. Two forms of whole-cell patch-clamp assays were used. In both, peak current through Nav1.7 was evoked by a depolarizing voltage pulse, and currents were monitored as a function of time in response to exposure to several different concentrations of drug. Automated electrophysiology uses the PatchXpress 7000A system. […] IC50 were determined by fitting to the Hill equation.
Class assignment keyed on IC50, ranges bin 0: < 1 µM; bin 1: ≥ 1 µM and < 3 µM; bin 2: ≥ 3 µM

Problem: GET /class?item= CNC(=O)c1cccc(Nc2nccc(N3CC(Oc4ccc(Cl)cc4F)C3)n2)c1 [Example M]
Solution: bin 1

Problem: Note, next up: CNC(=O)c1cccc(Nc2ncnc(N3CCC(OCc4ccc(OC(F)(F)F)cc4)CC3)n2)c1C [Example AD]
Solution: bin 2

Problem: What do you have for CNC(=O)c1cccc(Nc2nccc(N3CC(Oc4ccc(F)cc4Cl)C3)n2)c1 [Example I] ?
Solution: bin 0

Problem: Please answer likewise for CNC(=O)c1cccc(Nc2cccc(N3CC(Oc4ccc(F)cc4)C3)c2)c1 [Example AF]
Solution: bin 2

Problem: Same again, this time with CNC(=O)c1cccc(Nc2cc(N3CC(Oc4ccc(Cl)cc4F)C3)ncn2)c1 [Example Z]
Solution: bin 2

Problem: And the next one, CNC(=O)c1cccc(Nc2cccc(N3CC(Oc4ccc(Cl)cc4F)C3)n2)c1 [Example W] ?
Solution: bin 1

Problem: Query CNC(=O)c1cccc(Nc2ccnc(N3CC(Oc4ccc(F)cc4)C3)c2)c1 [Example V] next
Solution: bin 2

Problem: Repeat for the following compound: CNC(=O)c1cccc(Nc2nccc(N3CC(Oc4ccc(Cl)c(C)c4)C3)n2)c1 [Example L]
Solution: bin 0

Problem: Also need CNC(=O)c1cccc(Nc2nccc(N3CC(Oc4ccc(F)c(Cl)c4)C3)n2)c1 [Example F] , thanks.
Solution: bin 1

Problem: Same again, this time with CNC(=O)c1cc(Nc2cccc(N3CC(Oc4ccc(Cl)cc4F)C3)n2)ccc1F [Example X]
Solution: bin 2

Problem: Can you handle CNC(=O)c1cccc(Nc2nccc(N3CC(Oc4ccc(F)c(F)c4)C3)n2)c1 [Example E] next?
Solution: bin 1

Problem: Param item: CNC(=O)c1cccc(Nc2nc(C)nc(N3CC(Oc4ccc(Cl)cc4F)C3)n2)c1 [Example U]
Solution: bin 2

Problem: And the next one, CNC(=O)c1cccc(Nc2cccc(N3CC(Oc4ccc(Cl)cc4F)C3)c2)c1 [Example AG] ?
Solution: bin 2

Problem: Further, for CCNC(=O)c1cccc(Nc2ncnc(N3CC(Oc4ccc(Cl)cc4F)C3)n2)c1 [Example R] ?
Solution: bin 1

Problem: Now give it for CNC(=O)c1cccc(Nc2cc(N3CC(Oc4ccc(Cl)cc4F)C3)ccn2)c1 [Example T] too.
Solution: bin 2

Problem: What would you report for CNC(=O)c1cccc(Nc2nccc(N3CC(Oc4ccc(C(F)(F)F)cc4)C3)n2)c1 [Example C] ?
Solution: bin 1

Problem: CNC(=O)c1cccc(Nc2nccc(N3CC(Oc4ccc(F)c(C)c4)C3)n2)c1 [Example G] ?
Solution: bin 1

Problem: Would you mind doing CNC(=O)c1cccc(Nc2nc(N3CC(Oc4ccc(Cl)cc4F)C3)ncc2F)c1 [Example AK] as well?
Solution: bin 0

Problem: Now try CNC(=O)c1cccc(Nc2nccc(N3CC(Oc4ccc(Cl)c(F)c4)C3)n2)c1 [Example K] .
Solution: bin 0

Problem: Also need CNC(=O)c1cccc(Nc2ccnc(N3CC(Oc4ccc(Cl)cc4F)C3)c2)c1 [Example AA] , thanks.
Solution: bin 2

Problem: Can you handle CNC(=O)c1cccc(Nc2nccc(N3CC(Oc4ccc(OC)cc4)C3)n2)c1 [Example D] next?
Solution: bin 0

Problem: And for CNC(=O)c1cccc(Oc2ncnc(N3CC(Oc4ccc(Cl)cc4F)C3)n2)c1 [Example AE] ?
Solution: bin 2

Problem: Can you handle CNC(=O)c1cccc(Nc2nccc(N3CC(Oc4ccc(F)cc4F)C3)n2)c1 [Example H] next?
Solution: bin 1

Problem: Same for CNC(=O)c1cccc(Nc2nccc(N3CC(COc4ccc(Cl)cc4)C3)n2)c1 [Example O]
Solution: bin 1

Problem: Next: CNC(=O)c1cc(F)cc(Nc2ncnc(N3CC(Oc4ccc(Cl)cc4F)C3)n2)c1 [Example S]
Solution: bin 2

Problem: Also CNC(=O)c1cccc(Nc2ccnc(NCCCOc3ccc(OC(F)(F)F)cc3)n2)c1 [Example AC] , if possible.
Solution: bin 1

Problem: Next compound up: CNC(=O)c1cccc(Nc2nccc(N3CC(Oc4ccc(C)cc4)C3)n2)c1 [Example B]
Solution: bin 1

Problem: Same lookup for CNC(=O)c1cccc(Nc2nccc(N3CC(Oc4ccc(Cl)cc4C)C3)n2)c1 [Example N] , please.
Solution: bin 0

Problem: Please answer likewise for CNC(=O)c1cccc(Nc2nccc(N3CCc4cc(OCC(F)(F)F)ccc4C3)n2)c1 [Example AI]
Solution: bin 1

Problem: Okay, and CNC(=O)c1cccc(Nc2nccc(N3CC(Oc4ccc(F)cc4C)C3)n2)c1 [Example J] ?
Solution: bin 0

Problem: Note, next up: CNC(=O)c1cccc(Nc2nccc(N3CC(Oc4ccc(Cl)c(Cl)c4)C3)n2)c1 [Example A]
Solution: bin 0

Problem: Another compound to check: CNC(=O)c1cccc(Nc2ncnc(N3CC(Oc4ccc(Cl)cc4F)C3)c2F)c1 [Example AB]
Solution: bin 2

Problem: Request: CNC(=O)c1cccc(Nc2nccc(N3CC(Oc4ccc(Cl)cc4Cl)C3)n2)c1 [Example AAA]
Solution: bin 0

Problem: Follow-up entry: CNC(=O)c1cccc(Nc2nc(N3CC(Oc4ccc(F)cc4)C3)ncc2F)c1 [Example AH]
Solution: bin 0

Problem: Now try CNC(=O)c1cccc(Nc2ccnc(N3CC(Oc4ccc(Cl)cc4F)C3)n2)c1 [Example AJ] .
Solution: bin 1
